Assay: Clearance in rat liver microsomes
Assay type: ADME, microsome
reported.property: CLhep predicted (mL/min/kg)

Sample answers from the record:
CN1CCN(c2cc3c(-c4cccc(N5CCNCC5)n4)n[nH]c3cn2)CC1=O ... 31
Cc1cncc(-c2cc3c(cn2)cnn3-c2cccc(N3CCCNCC3)n2)n1 ... 32
Cc1ccc(-c2n[nH]c3cnc(-c4cccnc4)cc23)nc1N1CCC[C@H](N)C1 ... 34

(a) COc1ccc(-n2ncc3cnc(-c4cncc(C)n4)cc32)nc1N1CCC[C@H](N)C1
(b) Cc1cncc(-c2cc3c(cn2)cnn3-c2cccc([C@H]3CNCCC3(F)F)n2)n1
Between a and b , which one shows the smaller CLhep predicted number? Give the chosen item's label as your response.
a

* * *

Experiment: Metabolic stability in rat intestinal microsomes assessed as compound remaining after 60 mins in absence of NADPH/UDPGA
Assay type: ADME, Intestine, Microsome
Settings: intestinal microsomes, read-out: Stability
reported.property: remaining at 1 h (%)

CCn1cc(-c2cc3c(-c4cccc(N5CCC[C@@H](N)C5)n4)n[nH]c3cn2)cn1 ... 96
Cc1cncc(-c2cc3c(cnn3-c3cccc(N4CCCNCC4)n3)nn2)n1 ... 103
Cc1cncc(-c2cc3c(-c4cccc(N5CCCNCC5)n4)nsc3cn2)n1 ... 101
Cn1cc(-c2cc3c(-c4cccc(N5CCC[C@H](N)C5)n4)n[nH]c3cn2)cn1 ... 87
Cn1nc(-c2cccc(N3CCC[C@H](N)C3)n2)c2cc(-c3cccnc3)ncc21 ... 96
Cc1cncc(-c2ccc3cnn(-c4cccc(N5CCCNCC5)n4)c3c2)n1 ... 91
N[C@H]1CCCN(c2cccc(-c3n[nH]c4cnc(-c5cccnc5)cc34)n2)C1 ... 93
Cn1cc(-c2cc3c(-c4cccc(N5CCC[C@H](N)C5)n4)nn(C)c3cn2)cn1 ... 95
Cc1cncc(-c2cn3c(-c4cccc(N5CCCNCC5)n4)ncc3cn2)n1 ... 106
CCn1cc(-c2cc3c(-c4cccc(N5CCN(C)CC5)n4)n[nH]c3cn2)cn1 ... 82
Cc1cncc(-c2cc(F)c3cnn(-c4cccc(N5CCCNCC5)n4)c3c2)n1 ... 108
Cc1ccc(-c2n[nH]c3cnc(-c4cccnc4)cc23)nc1N1CCC[C@H](N)C1 ... 98

* * *

Test: Metabolic stability in rat intestinal microsomes assessed as compound remaining after 60 mins in presence of NADPH
Format: ADME, Intestine, Microsome
Details: read-out: Stability
reported.property: remaining at 1 h (%)

Cc1cncc(-c2cc3c(ccn3-c3cccc(N4CCCNCC4)n3)cn2)n1 ... 100

(I) Cc1cncc(-c2cc3c(cn2)cnn3-c2cccc(N3CCCNCC3)n2)n1
(II) Cn1nc(-c2cccc(N3CCC[C@H](N)C3)n2)c2cc(-c3cccnc3)ncc21
Task for the reader: decide whether I or II has the larger remaining at 1 h. Give the chosen item's label as your response.
I

* * *

Test: Metabolic stability in rat intestinal microsomes assessed as compound remaining after 60 mins in presence of NADPH
Assay type: ADME, Intestine, Microsome
Conditions: read-out: Stability
reported.property: remaining at 1 h (%)

Sample answers from the record:
CCn1cc(-c2cc3c(-c4cccc(N5CCN(C)CC5)n4)n[nH]c3cn2)cn1 ... 91
CN1CCN(c2cc3c(-c4cccc(N5CCNCC5)n4)n[nH]c3cn2)CC1=O ... 120
CCn1cc(-c2cc3c(-c4cccc(N5CCOCC5)n4)n[nH]c3cn2)cn1 ... 89
Cc1cncc(-c2cn3c(-c4cccc(N5CCCNCC5)n4)ncc3cn2)n1 ... 111
Cc1cncc(-c2cnc3cnn(-c4cccc(N5CCCNCC5)n4)c3c2)n1 ... 100
CCn1cc(-c2cc3c(-c4cccc(N5CCC[C@@H](N)C5)n4)n[nH]c3cn2)cn1 ... 83
Cn1cc(-c2cc3c(-c4cccc(N5CCC[C@H](N)C5)n4)n[nH]c3cn2)cn1 ... 86
Cn1cc(-c2cc3c(-c4cccc(N5CCC[C@H](N)C5)n4)nn(C)c3cn2)cn1 ... 91

(I) Cc1cncc(-c2ccc3cnn(-c4cccc(N5CCCNCC5)n4)c3c2)n1
(II) N[C@H]1CCCN(c2cccc(-c3n[nH]c4cnc(-c5cccnc5)cc34)n2)C1
Between I and II , which one shows the smaller remaining at 1 h number? Give the chosen item's label as your response.
II
(II: 34%, I: 84%)

* * *

System: MM1.S
Assay: Antiproliferative activity against human MM1S cells after 72 hrs by CellTiter-Glo assay
Type: functional, cell-based
reported.property: IC50 (nM)

(a) Cc1cncc(-c2cc3c(cn2)cnn3-c2cccc([C@H]3CNCCC3(F)F)n2)n1
(b) Cc1cncc(-c2cc3c(-c4cccc(N5CCCNCC5)n4)n[nH]c3cn2)n1
(c) Cc1cncc(-c2cc3c(cn2)cnn3-c2cccc(N3CCCNCC3)n2)n1
Provide the items ranked by increasing IC50. Please write the labels in the order that was asked for.
b, a, c

* * *

Biological target: UniProt Q12809
Sequence (Q12809 whole entry): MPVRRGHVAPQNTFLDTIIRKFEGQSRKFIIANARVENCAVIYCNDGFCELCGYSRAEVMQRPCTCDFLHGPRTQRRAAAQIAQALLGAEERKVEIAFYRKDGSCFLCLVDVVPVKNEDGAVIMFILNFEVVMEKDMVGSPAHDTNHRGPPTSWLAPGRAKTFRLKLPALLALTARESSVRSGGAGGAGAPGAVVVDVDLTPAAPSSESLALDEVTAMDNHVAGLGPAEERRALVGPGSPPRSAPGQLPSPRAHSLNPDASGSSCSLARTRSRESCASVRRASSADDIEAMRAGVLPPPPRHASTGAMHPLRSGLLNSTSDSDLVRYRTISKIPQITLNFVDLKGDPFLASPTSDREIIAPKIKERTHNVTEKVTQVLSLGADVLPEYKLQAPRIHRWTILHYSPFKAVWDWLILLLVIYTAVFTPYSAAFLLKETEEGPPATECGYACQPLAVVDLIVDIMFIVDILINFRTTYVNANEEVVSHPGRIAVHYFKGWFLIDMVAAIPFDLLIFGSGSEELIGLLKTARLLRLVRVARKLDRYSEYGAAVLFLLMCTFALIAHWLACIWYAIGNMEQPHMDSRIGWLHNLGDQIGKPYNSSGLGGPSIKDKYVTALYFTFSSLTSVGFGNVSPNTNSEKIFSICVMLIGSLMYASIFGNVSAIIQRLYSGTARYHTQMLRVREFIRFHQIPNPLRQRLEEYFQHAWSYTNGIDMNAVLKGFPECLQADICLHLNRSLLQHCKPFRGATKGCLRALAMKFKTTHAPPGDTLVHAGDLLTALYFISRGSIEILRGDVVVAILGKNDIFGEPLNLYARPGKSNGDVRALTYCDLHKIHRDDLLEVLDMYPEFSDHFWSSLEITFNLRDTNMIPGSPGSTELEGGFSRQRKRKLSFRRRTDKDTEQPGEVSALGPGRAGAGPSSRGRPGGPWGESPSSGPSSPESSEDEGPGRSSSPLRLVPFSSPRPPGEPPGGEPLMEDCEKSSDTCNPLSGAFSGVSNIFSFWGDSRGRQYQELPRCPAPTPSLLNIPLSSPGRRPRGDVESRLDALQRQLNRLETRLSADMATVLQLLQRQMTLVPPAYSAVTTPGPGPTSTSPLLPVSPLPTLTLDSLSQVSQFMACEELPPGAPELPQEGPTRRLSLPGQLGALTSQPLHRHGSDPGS
Assay: Inhibition of human ERG expressed in HEK293 cells at 10 uM after 5 mins by patch clamp assay
Format: cell-based
Conditions: HEK293 cells that express hERG
reported.property: inhibition at 5 min, 10 µM (%)
Give the value, in units of %, as a plain number.

Entry `COc1ccc(-n2ncc3cnc(-c4cncc(C)n4)cc32)nc1N1CCC[C@H](N)C1` ; assay system UniProt Q12809; inhibition at 5 min, 10 µM recorded at 49

* * *

Experiment: Metabolic stability in rat intestinal microsomes assessed as compound remaining after 60 mins in presence of NADPH/UDPGA
Format: ADME, Intestine, Microsome
Details: intestinal microsomes, read-out: Stability
reported.property: remaining at 1 h (%)

Sample answers from the record:
CCn1cc(-c2cc3c(-c4cccc(N5CCN(C)CC5)n4)n[nH]c3cn2)cn1 ... 0.4
CCn1cc(-c2cc3c(-c4cccc(N5CCOCC5)n4)n[nH]c3cn2)cn1 ... 0.4

(I) Cc1cncc(-c2cnc3cnn(-c4cccc(N5CCCNCC5)n4)c3c2)n1
(II) CCn1cc(-c2cc3c(-c4cccc(N5CCC[C@@H](N)C5)n4)n[nH]c3cn2)cn1
Between I and II , which one shows the smaller remaining at 1 h number? Give the chosen item's label as your response.
II
(II: 30%, I: 76%)

(I) Cc1cncc(-c2ccc3cnn(-c4cccc(N5CCCNCC5)n4)c3c2)n1
(II) Cn1nc(-c2cccc(N3CCC[C@H](N)C3)n2)c2cc(-c3cccnc3)ncc21
Between I and II , which one shows the smaller remaining at 1 h number? Give the chosen item's label as your response.
II

(a) Cc1cncc(-c2cc(F)c3cnn(-c4cccc(N5CCCNCC5)n4)c3c2)n1
(b) Cc1cncc(-c2cn3c(-c4cccc(N5CCCNCC5)n4)ncc3cn2)n1
(c) N[C@H]1CCCN(c2cccc(-c3n[nH]c4cnc(-c5cccnc5)cc34)n2)C1
(d) CN1CCN(c2cc3c(-c4cccc(N5CCNCC5)n4)n[nH]c3cn2)CC1=O
Ordering: ascending remaining at 1 h. Please write the labels in the order that was asked for.
c, d, b, a

* * *

Quick record: pKi, Serine/threonine-protein kinase pim-3 (Homo sapiens).
pKi: −log10 of the molar value.
reported.property: pKi

Cc1cncc(-c2cc3c(cnn3-c3cccc(N4CCCNCC4)n3)nn2)n1 ... 10.52
Cn1nc(-c2cccc(N3CCC[C@H](N)C3)n2)c2cc(-c3cccnc3)ncc21 ... 6.92

(a) Cc1cncc(-c2cc3c(ccn3-c3cccc(N4CCCNCC4)n3)cn2)n1
(b) CCn1cc(-c2cc3c(-c4cccc(N5CCOCC5)n4)n[nH]c3cn2)cn1
Between a and b , which one shows the smaller pKi number? Give the chosen item's label as your response.
a

* * *

Assay: Metabolic stability in rat intestinal microsomes assessed as compound remaining after 60 mins in presence of UDPGA
Type: ADME, Intestine, Microsome
Conditions: read-out: Stability
reported.property: remaining at 1 h (%)

Sample answers from the record:
Cn1cc(-c2cc3c(-c4cccc(N5CCC[C@H](N)C5)n4)n[nH]c3cn2)cn1 ... 67
N[C@H]1CCCN(c2cccc(-c3n[nH]c4cnc(-c5cccnc5)cc34)n2)C1 ... 48
Cc1cncc(-c2cc3c(-c4cccc(N5CCCNCC5)n4)n[nH]c3cn2)n1 ... 40
Cc1cncc(-c2cn3c(-c4cccc(N5CCCNCC5)n4)ncc3cn2)n1 ... 69
Cc1cncc(-c2cc3c(-c4cccc(N5CCCNCC5)n4)nsc3cn2)n1 ... 91
Cc1cncc(-c2ccc3cnn(-c4cccc(N5CCCNCC5)n4)c3c2)n1 ... 100
Cc1cncc(-c2cnc3cnn(-c4cccc(N5CCCNCC5)n4)c3c2)n1 ... 79
Cn1cc(-c2cc3c(-c4cccc(N5CCC[C@H](N)C5)n4)nn(C)c3cn2)cn1 ... 92

(1) Cc1cncc(-c2cc3c(cnn3-c3cccc(N4CCCNCC4)n3)nn2)n1
(2) CN1CCN(c2cc3c(-c4cccc(N5CCNCC5)n4)n[nH]c3cn2)CC1=O
(3) CCn1cc(-c2cc3c(-c4cccc(N5CCOCC5)n4)n[nH]c3cn2)cn1
(4) CCn1cc(-c2cc3c(-c4cccc(N5CCC[C@@H](N)C5)n4)n[nH]c3cn2)cn1
(5) CCn1cc(-c2cc3c(-c4cccc(N5CCN(C)CC5)n4)n[nH]c3cn2)cn1
Ordering: ascending remaining at 1 h. Please write the labels in the order that was asked for.
3, 5, 4, 2, 1

(1) Cn1nc(-c2cccc(N3CCC[C@H](N)C3)n2)c2cc(-c3cccnc3)ncc21
(2) Cc1ccc(-c2n[nH]c3cnc(-c4cccnc4)cc23)nc1N1CCC[C@H](N)C1
Between 1 and 2 , which one shows the smaller remaining at 1 h number? Give the chosen item's label as your response.
2
(2: 62%, 1: 103%)
